- Tested on: 317291-083-R-J1-PDC complex spheroids, viability;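 further: spheroids exposed to compounds for one week before readout; percent viability relative to DMSO vehicle wells taken as 100%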
- Procedure Details: Anticancer human tumor 317291-083-R-J1-PDC patient-derived soft tissue sarcoma cell line growth inhibition [GQUAD]
- Cond: second compound 10 µM; first compound 0.00999 µM; hits give low values
Readout Type: viability, T/C (%)

[
  {
    "Compound": "CC[C@@]1(O)C(=O)OCc2c1cc1n(c2=O)Cc2cc3c(CN(C)C)c(O)ccc3nc2-1 + CN(C)c1ccc(Nc2c3ccc(NC(=O)CCN4CCCC4)cc3nc3cc(NC(=O)CCN4CCCC4)ccc23)cc1",
    "Reading Unit": "%",
    "Number": 5.13
  },
  {
    "Compound": "Cc1[nH]c2ccccc2c1CCNCc1ccc(/C=C/C(=O)NO)cc1 + CN(C)c1ccc(Nc2c3ccc(NC(=O)CCN4CCCC4)cc3nc3cc(NC(=O)CCN4CCCC4)ccc23)cc1",
    "Reading Unit": "%",
    "Number": 0.54
  },
  {
    "Compound": "Cc1[nH]c2ccccc2c1CCNCc1ccc(/C=C/C(=O)NO)cc1 + Cc1cnc(CNC(=O)c2c(=O)c3ccc(N4CCCN(C)CC4)nc3n3c2sc2ccccc23)cn1",
    "Reading Unit": "%",
    "Number": 0.33
  }
]
